# experiment.description: DUSP6 inhibitors restoring Erk phosphorylation by chemical complementation, primary imaging in DUSP6-transfected HeLa (AID 609)
# applied.conditions: HeLa MKP-3 transfected, phospho-Erk imaging KS statistic; measured here: cell density z-score; at 10 µM; cells stimulated with TPA for 15 min
Consider the following compounds; for each one, report its z-score.
Give the value as a plain number.

The measured z-score associated with O=C(NC1CCS(=O)(=O)C1)N1CCCCC1 (stereo unspecified) reads -0.342

z-score in this record for CC(=O)Oc1cccc2c1C(=O)c1c(OC(C)=O)cc(C(=O)O)cc1C2=O : -1.09

Data point: CCc1ccccc1NC(=O)CSC1=C(C#N)C(c2ccc(O)c(OC)c2)C2=C(CCCC2=O)N1 (stereo unspecified) ; z-score = -0.0849

Recorded z-score (compound Cc1ccccc1OCC(O)Cn1c(N2CCN(c3ccccc3)CC2)nc2c1c(=O)[nH]c(=O)n2C (stereo unspecified) ): -0.379

// field: z-score; key: Cc1c(C(Nc2ccccn2)c2ccccc2)c(=O)n(-c2ccccc2)n1C (stereo unspecified) ; value = -0.885

get_value(item= Cc1cc(C)nc(NC2=NCC(=O)N2c2cccc(Cl)c2)n1 , readout=z-score) returns 1.05

Kindly note the recorded z-score for COc1ccccc1C(=O)NC(=Nc1nc2ccccc2o1)NC(=O)c1ccccc1OC , which is -1.24

Given item CCOC(=O)c1[nH]c2cc(OC)c(OC)cc2c1NC(=O)C(C)N1CCN(Cc2ccccc2)CC1 (stereo unspecified) , the value recorded as its z-score is 0.355

Sure, the documented z-score for Cc1cc(C(F)(F)F)nn1CC(=O)NCC1CCCO1 (stereo unspecified) is -0.885

Kindly note the recorded z-score for CCCCOc1ccc(CN(C)c2ncnc(N)n2)cc1 , which is -0.491

# z-score (compound: CC(C)(C)OC(=O)NCCC(=O)Oc1ccc2ccc(=O)oc2c1 ) is 0.0263

###

# experiment.description: DUSP6 inhibitors restoring Erk phosphorylation by chemical complementation, primary imaging in DUSP6-transfected HeLa (AID 609)
# applied.conditions: HeLa MKP-3 transfected, phospho-Erk imaging KS statistic; measured here: nuclear c-Myc green intensity z-score; at 10 µM; cells stimulated with TPA for 15 min
Note that class boundaries on z-score are lo: < -0.4; mid: ≥ -0.4 and < 0.2; hi: ≥ 0.2

Hello team, could you let me know which band the following compound falls into: C=CCc1c(C)c(C#N)c2nc3ccccc3n2c1N1CCN(C)CC1
lo

Place this compound in its band: Cc1cc2c(c(=O)n1Cc1cccnc1)C(c1ccccc1)C(C#N)=C(N)O2 (centres undefined)
lo

Hello team, could you let me know which band the following compound falls into: CCOC(=O)CSc1nc(N)c2c3c(sc2n1)CCCC3
hi

Using the reported z-score, which band applies to COC(=O)Cn1cc(C(=O)OC)cc(Br)c1=O ?
mid

Which class does N=c1c[n+](N2CCOCC2)[n-]o1 fall in?
lo

Determine which band this compound sits in: CCc1cccc(CC)c1N(COC)C(=O)Cn1nnc2ccccc21
hi

// return the class label for Cc1[nH]c2ccc(F)cc2c(=O)c1SC(F)(F)C(F)C(F)(F)F (centres undefined)
hi

Would you mind sorting CCCCNc1cc(C(=O)O)cc(S(N)(=O)=O)c1Oc1ccccc1 into the appropriate category?
hi

Which class is correct for the following compound? CC(C)c1cc(NCCCN2CCOCC2)n2c(nc3ccccc32)c1C#N
mid

Which z-score band matches COCCOC(=O)c1c(C)nc(SCC(=O)Nc2ccc(C)cc2)c(C#N)c1-c1ccco1 ?
hi

// return the class label for OC(CNCCCN1CCCCC1)COc1ccccc1 (centres undefined)
mid

Tag the class for Cn1c(=O)c2c3c(sc2n2c(SCC(=O)c4ccc(Cl)cc4)nnc12)COC(C)(C)C3
mid

Looking at O=c1/c(=C\c2cccn2-c2ccccc2)sc2nc3ccccc3n12 , which class would you pick?
hi

For this compound, which bin applies? CCC1(C)Cc2c(sc3c2c(=O)n(C)c2nnc(SCc4ccccc4)n32)CO1 (centres undefined)
lo

Input C/C=C(/C(=C/C)c1ccc(O)cc1)c1ccc(O)cc1 ; output its category
lo

Place this compound in its band: O=C(Nc1ccc2c(c1)OCCO2)c1ccc(Br)o1
lo

Which class is correct for the following compound? Fc1ccccc1/C=N/n1cnnc1
mid

Class? Entry: O=C1CCC(=O)N1c1nc2nc(-c3ccccc3)cc(-c3ccccc3)n2n1
hi

Which category fits this record: CCOC(=O)c1[nH]c2cc(OC)c(OC)cc2c1NC(=O)C(C)N1CCN(Cc2ccccc2)CC1 (centres undefined)
lo

Any idea which band c1ccc(Cc2nnc3n2CCCCC3)cc1 is in?
mid

Where would CCCCc1cc(=O)oc2c(CN(C)C)c(O)c(Cl)cc12 land among the classes by reported z-score?
mid

Exercise: read the entry CC1CN(C2CCN(C(=O)c3ccccc3)CC2)CC(C)O1 (centres undefined) and state which class it falls under.
mid

Values were extracted from PubChem BioAssay.
